Molecular target: T1, basiliximab fab
T1 construct: The assay used a Fab of basiliximab; Chimeric antibody: human IgG1 constant, mouse variable domains
T1 sequence (VH, as listed by the source limits assumed, chain 1 of 2): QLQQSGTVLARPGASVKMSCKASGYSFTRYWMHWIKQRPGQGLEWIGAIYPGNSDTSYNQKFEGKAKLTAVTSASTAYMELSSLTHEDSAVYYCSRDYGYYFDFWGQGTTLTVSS
T1 sequence (VL, as listed by the source limits assumed, chain 2 of 2): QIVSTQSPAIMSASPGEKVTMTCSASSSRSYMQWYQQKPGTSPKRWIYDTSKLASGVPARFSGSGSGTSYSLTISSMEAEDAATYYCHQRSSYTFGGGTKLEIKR
Assay: BLI; CD25-Fc on anti-hFc biosensor, basiliximab Fab in solution; global 1:1 fit;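 also: biolayer interferometry signals normalized against a reference probe and smoothed with a Savitzky-Golay filter before the global fit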
Recorded Kd, one value per entry.
Form entry: value (nM) — number only.

{"Binder": "CD25 L42Y mutant (CD25-Fc) (Fc fusion, not shown: Fc part of CD25-Fc) ELCDDDPPEIPHATFKAMAYKEGTMLNCECKRGFRRIKSGSYYMLCTGNSSHSSWDNQCQCTSSATRNTTKQVTPQPEEQKERKTTEMQSPMQPVDQASLPGHCREPPPWENEATERIYHFVVGQMVYYQCVQGYRALHRGPAESVCKMTHGKTRWTQPQLICTGEMETSQFPGEEKPQASPEGRPESETSCLVTTTDFQIQTEMAATMETSIFTTEYQ", "Kd / nM": 1.75}

### Prompt Can you look up the measured Kd of CD25 S41D mutant (CD25-Fc) (Fc fusion, not shown: Fc part of CD25-Fc) ELCDDDPPEIPHATFKAMAYKEGTMLNCECKRGFRRIKSGDLYMLCTGNSSHSSWDNQCQCTSSATRNTTKQVTPQPEEQKERKTTEMQSPMQPVDQASLPGHCREPPPWENEATERIYHFVVGQMVYYQCVQGYRALHRGPAESVCKMTHGKTRWTQPQLICTGEMETSQFPGEEKPQASPEGRPESETSCLVTTTDFQIQTEMAATMETSIFTTEYQ for me?
### Response 6.49

### Prompt Need Kd of CD25 L2Y mutant (CD25-Fc) (Fc fusion, not shown: Fc part of CD25-Fc) EYCDDDPPEIPHATFKAMAYKEGTMLNCECKRGFRRIKSGSLYMLCTGNSSHSSWDNQCQCTSSATRNTTKQVTPQPEEQKERKTTEMQSPMQPVDQASLPGHCREPPPWENEATERIYHFVVGQMVYYQCVQGYRALHRGPAESVCKMTHGKTRWTQPQLICTGEMETSQFPGEEKPQASPEGRPESETSCLVTTTDFQIQTEMAATMETSIFTTEYQ , thanks.
### Response 1.51
